# system_tested: T1, Human CD228 protein (human, UniProt P08582 20-708, limits assumed)
# T1 construct: Recombinant protein made in CHO cells, purified over a Ni column; The printed entry begins with the leader (MRGPSG...) and ends with ten His; also called hCD228; CD228-His protein
# T1 sequence: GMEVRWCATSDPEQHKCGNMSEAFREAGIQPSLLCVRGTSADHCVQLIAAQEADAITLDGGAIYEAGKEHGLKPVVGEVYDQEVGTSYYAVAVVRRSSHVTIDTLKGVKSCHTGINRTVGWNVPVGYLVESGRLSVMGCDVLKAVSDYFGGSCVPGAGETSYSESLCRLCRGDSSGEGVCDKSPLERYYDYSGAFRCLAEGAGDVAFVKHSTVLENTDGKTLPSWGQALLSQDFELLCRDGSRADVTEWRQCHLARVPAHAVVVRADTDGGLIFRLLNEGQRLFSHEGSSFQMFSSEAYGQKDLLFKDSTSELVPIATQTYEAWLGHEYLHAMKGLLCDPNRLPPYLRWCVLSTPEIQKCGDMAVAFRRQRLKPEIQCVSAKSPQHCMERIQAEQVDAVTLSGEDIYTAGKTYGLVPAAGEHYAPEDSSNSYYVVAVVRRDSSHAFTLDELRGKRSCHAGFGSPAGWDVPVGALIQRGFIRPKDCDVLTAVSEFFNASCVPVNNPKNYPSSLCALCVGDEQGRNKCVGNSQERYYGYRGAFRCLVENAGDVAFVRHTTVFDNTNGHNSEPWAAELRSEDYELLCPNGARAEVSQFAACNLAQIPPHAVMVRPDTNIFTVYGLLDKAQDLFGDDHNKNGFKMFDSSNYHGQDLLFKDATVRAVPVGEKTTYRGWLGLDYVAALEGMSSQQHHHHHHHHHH
# experimental_details: Octet competition on His-chip CD228; competitor: CA185
experimental_endpoint: competition (1-response value/blank value) (%)
Quick reminder: number only, in %, skip the unit.

Sure, the documented competition (1-response value/blank value) for CA149 (antibody, human IgG1, kappa, V domains shown, Intact IgG1; also called CA149 antibody) VH: EVQLVESGGGVVQPGRSLRLSCAASGFTFSSYAMHWVRQAPGKGLEWVAVISFDGSNKYYTDSVKGRFTISRDNSKNTLYLQMNSLRAEDTAVYYCAREVPYYYGSGPFDYWGQGTLVTVSS VL: EIVLTQSPATLSVSPGERATLSCRASQSVSSNLAWYQQKPGQAPRHLIDGASSRASGIPDRFSGSGSGTDFTLTISRLEPEDFAVYYCQQYGSSPPFTFGPGTKVDIKR is 98

Measured values drawn from patent US20250121082A1 for this set.
